B1: Activity-dependent neuroprotector homeobox protein, residues 770 to 810; numbered along this chain, Q9H2P0 (parent)
chain: FLTKYFNKQPYPTRREIEKLAASLWLWKSDIASHFSNKRKK

# Variants of: B1
# ASSAY_TEXT: abundance fitness (aPCA) (normalised: wild type 0, dead -1); higher = more abundant; growth selection in yeast, the domain comes from the species named
# MEASUREMENT_PARAMETERS: Homo sapiens
Assignment: determine reported abundance fitness for the given variants.
Give bare numbers.

Answered examples (4):
FLTKYFNKQPYPTRREIEKLAASLWLWKSDICSHFSNKRKK: 0.074
FLTKYFNKQPYPTRREIEKLAASLWLWKSDIASHFSKKRKK: 0.131
FLTKYFNKQPYPTRREIEKLAASLWLWMSDIASHFSNKRKK: 0.438
FLTKYFNHQPYPTRREIEKLAASLWLWKSDIASHFSNKRKK: -1.09

Would you mind giving abundance fitness for every variant in the list below?
1. FLTKYFFKQPYPTRREIEKLAASLWLWKSDIASHFSNKRKK
2. FLTKYFNKQPYPTRREIEKLAASLWLWKFDIASHFSNKRKK
3. NLTKYFNKQPYPTRREIEKLAASLWLWKSDIASHFSNKRKK

Outgoing:
-1.24
-0.43
-0.142

Would you mind giving abundance fitness for every variant in the list below?
1. FLTKYFNKQPYPTRREIEKLVASLWLWKSDIASHFSNKRKK
2. FLTKYFNKQPYPTRREIEKLAASLWLWKSDIASEFSNKRKK
3. FLTKYFNKQPYPTRREIEKLAASLWLWKSDIASHFMNKRKK
4. FLTKYFNKQPYPTRREIEKLAASLWLWKSDIASHFSNVRKK

Outgoing:
[-0.128, -0.275, -0.037, -0.119]

Would you mind giving abundance fitness for every variant in the list below?
1. FLTKYFNKQPYPTRREIEKLAASLWLWISDIASHFSNKRKK
2. FLTKYFNKQPSPTRREIEKLAASLWLWKSDIASHFSNKRKK

Outgoing:
1: 0.445; 2: 0.275

Would you mind giving abundance fitness for every variant in the list below?
1. FLTKYFNKQPYPTRREIEKLAASLWLWKSDISSHFSNKRKK
2. FLTKYFNKQPYPMRREIEKLAASLWLWKSDIASHFSNKRKK
3. FLTKYFNDQPYPTRREIEKLAASLWLWKSDIASHFSNKRKK
4. FLTKYFNKQPYPTRREIEKLACSLWLWKSDIASHFSNKRKK
5. FCTKYFNKQPYPTRREIEKLAASLWLWKSDIASHFSNKRKK
6. FLTKYFNKQPYPTRREIEKDAASLWLWKSDIASHFSNKRKK

Outgoing:
1. -0.196
2. 0.28
3. -0.325
4. -0.229
5. -0.571
6. -0.322

Would you mind giving abundance fitness for every variant in the list below?
1. FLTKYFNKQPYPTRREIEKLAAVLWLWKSDIASHFSNKRKK
2. FLTKYFNKQPYPTRRFIEKLAASLWLWKSDIASHFSNKRKK
3. FLTTYFNKQPYPTRREIEKLAASLWLWKSDIASHFSNKRKK

Outgoing:
1. -0.101
2. 0.304
3. -0.877

Would you mind giving abundance fitness for every variant in the list below?
1. FLTKYFNKQPYPTRREIEKLARSLWLWKSDIASHFSNKRKK
2. FLTKYFNKQPYPTRREIEKLALSLWLWKSDIASHFSNKRKK
3. FLTKYFNKQPYPTRREGEKLAASLWLWKSDIASHFSNKRKK
4. FLTKYFNKQPYPTRREIEKLAASLWLWKSDIASHFSNKRKC
5. FLTKYFNKQPYPTRREIEKLLASLWLWKSDIASHFSNKRKK
6. FLTKYFNKQPYPTRREIEKLAASLWLWKSDPASHFSNKRKK
7. FLTKYFNKQPYPTRREMEKLAASLWLWKSDIASHFSNKRKK
8. FLTKYFNKQPYPTRREIEKLAASLHLWKSDIASHFSNKRKK

Outgoing:
[-0.027, -0.396, -0.158, -0.261, -0.082, -0.098, 0.239, 0.071]

Would you mind giving abundance fitness for every variant in the list below?
1. FLTKYFNKQPYPTRREIEKLAASLWLWKSDIASHISNKRKK
2. FLTKKFNKQPYPTRREIEKLAASLWLWKSDIASHFSNKRKK
3. FLTKYFNKQPYPERREIEKLAASLWLWKSDIASHFSNKRKK

Outgoing:
1: -0.208; 2: -0.183; 3: -0.369

Would you mind giving abundance fitness for every variant in the list below?
1. FLTKYFNKQPYPTRREIEKLAASLWLWKSDIASHFINKRKK
2. FLTKYFNKQPYPTRREIEKLAASKWLWKSDIASHFSNKRKK
3. FLTKYFNKQPYPTRREIEKLAAYLWLWKSDIASHFSNKRKK
4. FLTKYFNKQPYPTRREIEKLAASLWLWKSDIANHFSNKRKK
5. FLTKYFNKQPYPTRREIEKLAASLWLWKSDIASHFSNKPKK
6. FLTKPFNKQPYPTRREIEKLAASLWLWKSDIASHFSNKRKK

Outgoing:
1: -0.091; 2: -0.321; 3: -0.364; 4: -0.284; 5: -0.232; 6: -0.526
